Attribution: PubChem BioAssay (NCI)

# Test system: DU-145 prostate
# Protocol notes: NCI-60 one-dose screen, 48 h
# Condition label: 10 µM unless noted
The panel holds about 83,000 compounds, 20% with a hit somewhere; the sample as a whole holds those more often. Active and inactive are the calls of the source. Rule for the calls: active = growth percent below 10; inactive = the rest.
Outcomes: YES (active), NO (inactive)

1. C#Cc1cccc(Nc2ncnc3ccc(-c4cnc(Cl)c(NS(C)(=O)=O)c4)cc23)c1 : YES
2. C=CN(C(=O)N1CCN(c2cc3c(cc2F)c(=O)c(C(=O)O)cn3C2CC2)CC1)c1nc(-c2ccc(C)cc2)cs1 : NO
3. O=c1cc(-c2nccc3c2[nH]c2ccccc23)c2cc(Cl)ccc2o1 : NO
4. CN1CCN(Cc2ccc(NC(=O)c3cncc(C#Cc4c(N)ncc5cc(F)ccc45)c3)cc2C(F)(F)F)CC1 : YES
5. CCNCCNc1c(C)c(-c2ccc(C(F)(F)F)cc2)c(C#N)c2nc3ccccc3n12 : NO
6. CCCCC1=C(Br)C(=O)c2ncccc2C1=O : NO
7. CC(=O)c1ccc(Nc2nccc(-c3ccc(Cl)cc3)n2)cc1 : NO
8. Cc1ccc(C2=Nc3c(N)nc(N)nc3NC(c3cccc(Nc4ccnc5cc(C(F)(F)F)ccc45)c3)C2)cc1 (centres undefined) : NO
9. c1ccc(Cn2cc3c(c2)-c2nc(Nc4ccccc4)ncc2CC3)cc1 : NO
10. Cn1cc(-c2ccc3occ(-c4cccc(-c5ccncc5)c4)c3n2)cn1 : NO
11. Cc1nn(-c2ccccc2)c(Oc2ccccc2)c1/C=N/NC(=O)Cn1c(=O)sc2ccccc21 : NO
12. O=C1/C(=C/c2ccc(Br)cc2)COc2ccc(O)cc21 : NO
13. COC1=C(OC)C(=O)C(CCCCCCCCCCO)=C(C)C1=O : NO
14. O=C1c2ccccc2C(=O)c2cc(Cn3c[n+](Cc4ccc5ccccc5c4)c4ccccc43)ccc21 : NO
15. CCCCCCCCCCCCCCCCCCOc1ccccc1CC(=O)OCC[N+]1(C)CCCCC1 : NO
16. Cn1ccnc1C(=O)/C=C/c1ccc(CC(=O)Nc2cc(F)c(F)c(F)c2)cc1 : YES
17. COC(=O)CCc1c(/C=C2\N=C(c3ccc[nH]3)C=C2OC)[nH]c(C)c1C(=O)OCc1ccccc1 : NO
18. CC(C)c1nc(N(C)S(C)(=O)=O)nc(-c2ccc(F)cc2)c1/C=C/C(=O)C[C@@H](O)CC(=O)O : NO
19. Cc1cc2c(C(C)C)c(O)c(O)c(/C=N/O)c2c(O)c1-c1c(C)cc2c(C(C)C)c(O)c(O)c(/C=N/O)c2c1O : YES
